# Tgt: HLA-B*08:01 (Homo sapiens)
# Procedure Summary: MHC binding assay (UV-ligand exchange, beta2m ELISA)
# Applied Conditions: MHC class I binding score; binding to HLA-B*08:01 ranged by peptide exchange yield (UV-ligand exchange, β2m ELISA)
# Text: Candidate peptides for T cell based therapies according to the present invention were further tested for their MHC binding capacity (affinity). The individual peptide-MHC complexes were produced by UV-ligand exchange, where a UV-sensitive peptide is cleaved upon UV-irradiation and exchanged with the peptide of interest as analyzed. Only peptide candidates that can effectively bind and stabilize the peptide-receptive MHC molecules prevent dissociation of the MHC complexes. […]
Reported Metric: Peptide exchange

Would you please look over these solved cases?
Task item: What value of Peptide exchange has been recorded for this entry: 83 (FVLLRSVDL; listed as Homo sapiens) [compound 83]
Reply: +++ (50% = +++)

Task item: What value of Peptide exchange has been recorded for this entry: 172 (PYEKVSRL; listed as Homo sapiens) [compound 172]
Reply: ++ (20% = ++)

Task item: What value of Peptide exchange has been recorded for this entry: 81 (MYRKEQYL; listed as Homo sapiens) [compound 81]
Reply: ++ (20% = ++)

Task item: What value of Peptide exchange has been recorded for this entry: 110 (DAMTKHTL; listed as Homo sapiens) [compound 110]
Reply: +++ (50% = +++)

Task item: What value of Peptide exchange has been recorded for this entry: 145 (MIYRKALRL; listed as Homo sapiens) [compound 145]
Reply: ++ (20% = ++)

Task item: What value of Peptide exchange has been recorded for this entry: 157 (QPYRFPQA; listed as Homo sapiens) [compound 157]
Reply: ++ (20% = ++)

Task item: What value of Peptide exchange has been recorded for this entry: 59 (FDFRGKTKVF; listed as Homo sapiens) [compound 59]
Reply: ++ (20% = ++)

Task item: What value of Peptide exchange has been recorded for this entry: 42 (VLRRKTLL; listed as Homo sapiens) [compound 42]
Reply: ++ (20% = ++)

Task item: What value of Peptide exchange has been recorded for this entry: 130 (LPAPYQHQL; listed as Homo sapiens) [compound 130]
Reply: ++ (20% = ++)

Task item: What value of Peptide exchange has been recorded for this entry: 230 (DVYFHHVL; listed as Homo sapiens) [compound 230]
Reply: ++ (20% = ++)

Continue with the next substance.
Task item: What value of Peptide exchange has been recorded for this entry: 73 (MFPARGVPL; listed as Homo sapiens) [compound 73]
Reply: ++ (20% = ++)

###

# Tested on: CD8+ T cells of healthy HLA-B*08 donors
# Procedure Summary: In vitro T-cell priming assay with aAPCs loaded with peptide/MHC complexes and anti-CD28 antibody, pMHC multimer readout
# Assay type: cell-based, human
# Applied Conditions: in vitro immunogenicity, HLA class I peptides, Table 10B
Reported Metric: Wells positive [%]

Would you please look over these solved cases?
Task item: What value of Wells positive [%] has been recorded for this entry: 21 (RILKRFLAC; listed as Homo sapiens) [compound 21]
Reply: + (<20% = +)

Task item: What value of Wells positive [%] has been recorded for this entry: 62 (FMLAKEASL; listed as Homo sapiens) [compound 62]
Reply: + (<20% = +)

Task item: What value of Wells positive [%] has been recorded for this entry: 20 (ILKRFLAC; listed as Homo sapiens) [compound 20]
Reply: + (<20% = +)

Task item: What value of Wells positive [%] has been recorded for this entry: 36 (IVKIKVQEL; listed as Homo sapiens) [compound 36]
Reply: ++ (20%-49% = ++)

Continue with the next substance.
Task item: What value of Wells positive [%] has been recorded for this entry: 76 (HPRLKVNLL; listed as Homo sapiens) [compound 76]
Reply: + (<20% = +)

###

# Tgt: HLA-B*08:01 (Homo sapiens)
# Procedure Summary: MHC binding assay (UV-ligand exchange, beta2m ELISA)
# Applied Conditions: MHC class I binding score; binding to HLA-B*08:01 ranged by peptide exchange yield (UV-ligand exchange, β2m ELISA)
Reported Metric: Peptide exchange

Would you please look over these solved cases?
Task item: What value of Peptide exchange has been recorded for this entry: 66 (DLKKTRVL; listed as Homo sapiens) [compound 66]
Reply: ++ (20% = ++)

Task item: What value of Peptide exchange has been recorded for this entry: 245 (GPRGPSSGHPL; listed as Homo sapiens) [compound 245]
Reply: ++ (20% = ++)

Task item: What value of Peptide exchange has been recorded for this entry: 161 (DIVPPFSAF; listed as Homo sapiens) [compound 161]
Reply: ++ (20% = ++)

Task item: What value of Peptide exchange has been recorded for this entry: 139 (YGRIGISLF; listed as Homo sapiens) [compound 139]
Reply: ++ (20% = ++)

Next:
Task item: What value of Peptide exchange has been recorded for this entry: 75 (YARLKNVLL; listed as Homo sapiens) [compound 75]
Reply: +++ (50% = +++)

Task item: What value of Peptide exchange has been recorded for this entry: 231 (GEKLLRPSL; listed as Homo sapiens) [compound 231]
Reply: ++ (20% = ++)

Task item: What value of Peptide exchange has been recorded for this entry: 77 (LPKLPVPPL; listed as Homo sapiens) [compound 77]
Reply: +++ (50% = +++)

Task item: What value of Peptide exchange has been recorded for this entry: 189 (APDNVLLTL; listed as Homo sapiens) [compound 189]
Reply: ++ (20% = ++)

Task item: What value of Peptide exchange has been recorded for this entry: 122 (ESSAQPTAL; listed as Homo sapiens) [compound 122]
Reply: ++ (20% = ++)

###

# System: CD8+ T cells of healthy HLA-B*08 donors
# Procedure Summary: In vitro T-cell priming assay with aAPCs loaded with peptide/MHC complexes and anti-CD28 antibody, pMHC multimer readout
# Format: cell-based, human
# Applied Conditions: in vitro immunogenicity, HLA class I peptides, Table 10B
Reported Metric: Wells positive [%]

Task item: What value of Wells positive [%] has been recorded for this entry: 33 (WIGLRNLDL; listed as Homo sapiens) [compound 33]
Reply: + (<20% = +)

Task item: What value of Wells positive [%] has been recorded for this entry: 60 (MLHIKKAEV; listed as Homo sapiens) [compound 60]
Reply: + (<20% = +)

Task item: What value of Wells positive [%] has been recorded for this entry: 41 (RGALRTLSL; listed as Homo sapiens) [compound 41]
Reply: + (<20% = +)

###

# Tgt: HLA-B*08:01 (Homo sapiens, UniProt P01889)
# Procedure Summary: MHC binding assay (UV-ligand exchange, beta2m ELISA)
# Applied Conditions: MHC class I binding score; binding to HLA-B*08:01 ranged by peptide exchange yield (UV-ligand exchange, β2m ELISA)
Reported Metric: Peptide exchange

Would you please look over these solved cases?
Task item: What value of Peptide exchange has been recorded for this entry: 92 (TLKAMVQAW; listed as Homo sapiens) [compound 92]
Reply: +++ (50% = +++)

Task item: What value of Peptide exchange has been recorded for this entry: 100 (VLLMGPLHL; listed as Homo sapiens) [compound 100]
Reply: ++ (20% = ++)

Task item: What value of Peptide exchange has been recorded for this entry: 150 (MRSSYIREL; listed as Homo sapiens) [compound 150]
Reply: ++ (20% = ++)

Task item: What value of Peptide exchange has been recorded for this entry: 106 (HLHLLETSI; listed as Homo sapiens) [compound 106]
Reply: ++ (20% = ++)

Task item: What value of Peptide exchange has been recorded for this entry: 136 (KMFYRKDVM; listed as Homo sapiens) [compound 136]
Reply: +++ (50% = +++)

Next:
Task item: What value of Peptide exchange has been recorded for this entry: 114 (PVKPKFYL; listed as Homo sapiens) [compound 114]
Reply: ++ (20% = ++)

Task item: What value of Peptide exchange has been recorded for this entry: 3 (SIQSRYISM; listed as Homo sapiens) [compound 3]
Reply: +++ (50% = +++)

Task item: What value of Peptide exchange has been recorded for this entry: 210 (QPNTHQLL; listed as Homo sapiens) [compound 210]
Reply: ++ (20% = ++)
